- Test system: Pseudomonas aeruginosa
- test.description: Antibacterial activity against Pseudomonas aeruginosa
- Format: functional
measurement.kind: MIC

Known MIC results, listed for orientation:
smiles.representation: COc1c(N2C[C@H]3CCCN(S(=O)(=O)c4ccc(Cl)cc4)[C@H]3C2)c(F)cc2c(=O)c(C(=O)O)cn(C3CC3)c12
subject.of.test: Pseudomonas aeruginosa
MIC: < 2.42 µg/mL
--
smiles.representation: COc1c(N2C[C@H]3CCCN(C(=O)c4ccc(Br)cc4)[C@H]3C2)c(F)cc2c(=O)c(C(=O)O)cn(C3CC3)c12
subject.of.test: Pseudomonas aeruginosa
MIC: < 1.23 µg/mL
--
smiles.representation: COc1c(N2C[C@H]3CCCN(S(=O)(=O)c4ccccc4)[C@H]3C2)c(F)cc2c(=O)c(C(=O)O)cn(C3CC3)c12
subject.of.test: Pseudomonas aeruginosa
MIC: < 2.42 µg/mL

Dear reader, for each entry below, please note its MIC.
1. CCn1c(S)nnc1CN1CCN(c2cc3c(cc2F)c(=O)c(C(=O)O)cn3CC)CC1
2. COc1c(N2C[C@H]3CCCN(C(=O)c4ccccc4)[C@H]3C2)c(F)cc2c(=O)c(C(=O)O)cn(C3CC3)c12
3. COc1c(N2C[C@H]3CCCN(C(=O)c4ccc(Cl)cc4)[C@H]3C2)c(F)cc2c(=O)c(C(=O)O)cn(C3CC3)c12

1: < 0.24 µg/mL; 2: < 1.23 µg/mL; 3: < 1.23 µg/mL

---

- System: Pseudomonas aeruginosa
- test.description: Antibacterial activity against Pseudomonas aeruginosa
- Assay type: functional
Kindly supply the reported MIC values for the records listed here.
Numbers only, in µg/mL.

smiles.representation: COc1cc(C=O)cc(CN2CCN(c3cc4c(cc3F)c(=O)c(C(=O)O)cn4C3CC3)CC2)c1O
MIC [µg/mL]: 0.012

Look at this compound and give its reported MIC. CCn1cc(C(=O)O)c(=O)c2cc(F)c(N3CCN(C(=O)CN4C(=O)S/C(=C\c5ccc(Cl)cc5)C4=O)CC3)cc21
0.25

---

Please respond with reported MIC for every item in the list.
- Test system: Staphylococcus aureus
- test.description: Antibacterial activity against methicillin resistant Staphylococcus aureus 3
- Format: functional
Give bare numbers, in µg/mL.

Example compounds with recorded MIC:
smiles.representation: CCn1cc(C(=O)O)c(=O)c2cc(F)c(N3CCN(Cc4nnc(-c5ccc(OC)cc5)o4)CC3)cc21
measurement.kind: MIC
endpoint.value: 0.25

smiles.representation: CCn1cc(C(=O)O)c(=O)c2cc(F)c(N3CCN(Cc4nnc(-c5ccccc5Cl)o4)CC3)cc21
measurement.kind: MIC
endpoint.value: 0.25

Endpoint output: MIC of CCn1cc(C(=O)O)c(=O)c2cc(F)c(N3CCN(Cc4nnc(-c5cccc(OC)c5)o4)CC3)cc21 . Value?
1

---

- Tested on: Enterococcus faecalis
- test.description: Antibacterial activity against Enterococcus faecalis
- Assay type: functional
measurement.kind: MIC

Some solved cases for reference:
smiles.representation: COc1c(N2C[C@H]3CCCN(Cc4ccc(F)cc4)[C@H]3C2)c(F)cc2c(=O)c(C(=O)O)cn(C3CC3)c12
measurement.kind: MIC
endpoint.value: < 2.39 mg/L

smiles.representation: COc1ccc(S(=O)(=O)N2CCC[C@@H]3CN(c4c(F)cc5c(=O)c(C(=O)O)cn(C6CC6)c5c4OC)C[C@@H]32)cc1
measurement.kind: MIC
endpoint.value: < 2.42 mg/L

smiles.representation: COc1c(N2C[C@H]3CCCN(S(=O)(=O)c4ccc([N+](=O)[O-])cc4)[C@H]3C2)c(F)cc2c(=O)c(C(=O)O)cn(C3CC3)c12
measurement.kind: MIC
endpoint.value: < 2.42 mg/L

smiles.representation: COc1c(N2C[C@H]3CCCN(C(=O)c4ccc([N+](=O)[O-])cc4)[C@H]3C2)c(F)cc2c(=O)c(C(=O)O)cn(C3CC3)c12
measurement.kind: MIC
endpoint.value: ≤ 1.23 mg/L

smiles.representation: COc1c(N2C[C@H]3CCCN(Cc4ccc(C)cc4)[C@H]3C2)c(F)cc2c(=O)c(C(=O)O)cn(C3CC3)c12
measurement.kind: MIC
endpoint.value: < 2.39 mg/L

# evaluate next
Name the reported MIC value associated with the molecule COc1c(N2C[C@@H]3CCCN[C@@H]3C2)c(F)cc2c(=O)c(C(=O)O)cn(C3CC3)c12
< 0.6 mg/L
